Listed here: items and their measured DC50.
Target: ER in T47D cells (Homo sapiens (Human), UniProt P03372)
Sequence (P03372 whole entry): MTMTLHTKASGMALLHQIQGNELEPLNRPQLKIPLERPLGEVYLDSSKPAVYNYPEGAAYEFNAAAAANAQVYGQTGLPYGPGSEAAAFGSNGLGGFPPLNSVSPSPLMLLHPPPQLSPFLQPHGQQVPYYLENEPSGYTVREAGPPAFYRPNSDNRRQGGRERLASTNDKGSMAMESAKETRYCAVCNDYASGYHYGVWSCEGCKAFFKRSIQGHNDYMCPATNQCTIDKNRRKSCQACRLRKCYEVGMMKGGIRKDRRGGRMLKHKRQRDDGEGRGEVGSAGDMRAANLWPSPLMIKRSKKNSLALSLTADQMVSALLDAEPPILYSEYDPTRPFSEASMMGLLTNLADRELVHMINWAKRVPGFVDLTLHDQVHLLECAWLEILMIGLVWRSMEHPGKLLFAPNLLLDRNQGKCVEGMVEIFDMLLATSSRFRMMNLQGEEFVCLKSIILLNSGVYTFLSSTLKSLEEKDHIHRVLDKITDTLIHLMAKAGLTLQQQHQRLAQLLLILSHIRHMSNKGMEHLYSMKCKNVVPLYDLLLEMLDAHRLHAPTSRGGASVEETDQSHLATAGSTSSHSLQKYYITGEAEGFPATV
Test: In-cell Western (ICW) ER degradation assay in T47D cells
Format: cell-based
Details: ER degradation, 16 hrs treatment

As a guide, the following entries are already answered.
compound | measurement.target | DC50
O=C1CC[C@H](N2Cc3cc4c(cc3C2=O)OC[C@H]2CN(C[C@H]3COC5(CCN(c6ccc([C@@H]7c8ccc(O)cc8CC[C@@H]7c7ccccc7)cc6)CC5)C3)CCN42)C(=O)N1 (single isomer, unassigned) | ER in T47D cells (Homo sapiens (Human), UniProt P03372) | 1 to 10 nM
COc1cc(N2CCC3(CC2)CC(CN2CCN4c5ccc(C(=O)N[C@H]6CCC(=O)NC6=O)nc5OCC4C2)C3)ccc1[C@@H]1c2ccc(O)cc2CC[C@@H]1c1ccccc1 (stereo in doubt) | ER in T47D cells (Homo sapiens (Human), UniProt P03372) | < 1 nM
O=C1CC[C@H](N2Cc3c(ccc4c3OC[C@H]3CN(CC5CC6(CCN(c7ccc([C@H]8c9ccc(O)cc9CC[C@H]8c8ccccc8)cc7F)CC6)C5)CCN43)C2=O)C(=O)N1 (single isomer, unassigned) | ER in T47D cells (Homo sapiens (Human), UniProt P03372) | 1 to 10 nM

Now look at this entry.
Inquiry: Which measured DC50 belongs to O=C1CCC(Nc2ccc(C34CCN(C[C@@H]5COC6(CCN(c7ccc([C@@H]8c9ccc(O)cc9CC[C@@H]8c8ccccc8)cc7)CC6)C5)CC3C4(F)F)cc2)C(=O)N1 (stereo partly shown) , tested on ER in T47D cells (Homo sapiens (Human), UniProt P03372)?
Reply text: > 100 nM

###

Biological target: ER in MCF-7 cells (Homo sapiens (Human))
Sequence (P03372 whole entry): as above
Assay: In-cell Western (ICW) ER degradation assay in MCF-7 cells
Format: cell-based
Settings: MCF-7, ER degradation, 16 hrs treatment; read-out: MCF7 DC50
measurement.label: DC50

compound | measured.value
O=C1CC[C@@H](Nc2ccc(C3CCN(C[C@@H]4COC5(CCN(c6ccc([C@@H]7c8ccc(O)cc8CC[C@@H]7c7ccccc7)cc6)CC5)C4)CC3)cc2)C(=O)N1 (single isomer, unassigned) | 0.01 to 0.1 µM

Now look at this entry.
Inquiry: What DC50 value was documented for this compound, O=C1CC[C@H](Nc2ccc(C3CCN(C[C@H]4COC5(CCN(c6ccc([C@H]7c8ccc(O)cc8CC[C@H]7c7ccccc7)cc6)CC5)C4)CC3)cc2)C(=O)N1 (single isomer, unassigned) ?
Reply text: < 0.001 µM

###

Listed here: items and their measured DC50.
Biological target: UniProt P03372
Test: In-cell western blot analysis of ER for "B" compounds
Format: cell-based
Conditions: 16 hours, read-out: ICW DC50

molecule | measurement.target | measured.value
O=C1CCC(N2C(=O)c3cc4c(cc3C2=O)CN(CC(=O)N2CCOC3(CCN(c5ccc([C@@H]6c7ccc(O)cc7CC[C@@H]6c6ccccc6)cc5)CC3)C2)C4)C(=O)N1 (some centres unmarked) | UniProt P03372 | 10 to 100 nM
O=C1CCC(N2Cc3cc4c(cc3C2=O)OC[C@@H]2CN(C3CN(CC5CCN(c6ccc([C@@H]7c8ccc(O)cc8CC[C@@H]7c7ccccc7)cc6)CC5)C3)CCN42)C(=O)N1 (some centres unmarked) | UniProt P03372 | < 10 nM
O=C1CCC(N2Cc3cc4c(cc3C2=O)OC[C@@H]2CN(CC3CC5CN(c6ccc([C@@H]7c8ccc(O)cc8CC[C@@H]7c7ccccc7)cc6)CC5C3)CCN42)C(=O)N1 (mixture of isomers) | UniProt P03372 | > 100 nM
O=C1CC[C@H](N2Cc3c(ccc4c3OCC43CCN(C[C@H]4CCC5(CCN(c6ccc([C@@H]7c8ccc(O)cc8CC[C@@H]7c7ccccc7)cc6)CC5)OC4)CC3)C2=O)C(=O)N1 | UniProt P03372 | < 10 nM
O=C1CCC(N2Cc3cc4c(cc3C2=O)OC[C@@H]2CN(CC(=O)N3CCC5(CC3)CCN(c3ccc([C@H]6c7ccc8[nH]ncc8c7CC[C@H]6c6ccccc6)cc3)CC5)CCN42)C(=O)N1 (some centres unmarked) | UniProt P03372 | 10 to 100 nM

Inquiry: What DC50 value was documented for this molecule, `O=C1CC[C@H](NC(=O)c2ccc(N3CCN(CC4CCN(c5ccc([C@@H]6c7ccc(O)cc7CC[C@@H]6c6ccccc6)cc5)CC4)CC3)cc2F)C(=O)N1` ?
Reply text: > 100 nM

Inquiry: What DC50 value was documented for this molecule, O=C1CCC(N2Cc3cc4c(cc3C2=O)OC[C@@H]2CN(CC(=O)N3CC(Nc5ccc([C@@H]6c7ccc(O)cc7CC[C@@H]6c6ccccc6)cc5)C3)CCN42)C(=O)N1 (some centres unmarked) ?
Reply text: < 10 nM

Inquiry: What DC50 value was documented for this molecule, `O=C1CC[C@H](N2Cc3c(ccc4c3OCC43CCN(C[C@@H]4CCC5(CCN(c6ccc([C@@H]7c8ccc(O)cc8CC[C@@H]7c7ccccc7)cc6)CC5)OC4)CC3)C2=O)C(=O)N1` ?
Reply text: < 10 nM

###

Biological target: ER in T47D cells (Homo sapiens (Human), UniProt P03372)
Test: In-cell Western (ICW) ER degradation assay in T47D cells
Format: cell-based
Details: ER degradation, 16 hrs treatment
measurement.label: DC50

compound | measured.value
O=C1CC[C@H](N2Cc3cc4c(cc3C2=O)OC[C@@H]2CN(C[C@@H]3COC5(C3)CN(c3ccc([C@@H]6c7ccc(O)cc7CC[C@@H]6c6ccccc6)cc3)C5)CCN42)C(=O)N1 | < 1 nM
COc1cc(N2CCC(CN3CCC4(CC3)COc3c4ccc4c3CN([C@H]3CCC(=O)NC3=O)C4=O)CC2)c(F)cc1[C@@H]1c2ccc(O)cc2CC[C@@H]1c1ccccc1 | < 1 nM
COc1cc(N2CCC3(CC2)CC(CN2CCN4c5cc6c(cc5OC[C@@H]4C2)C(=O)N([C@H]2CCC(=O)NC2=O)C6)C3)ccc1[C@@H]1c2ccc(O)cc2CC[C@@H]1c1ccccc1 (single isomer, unassigned) | < 1 nM
COc1cc([C@H]2c3ccc(O)cc3CC[C@H]2c2ccccc2)c(F)cc1N1CCC2(CC1)CC(CN1CCN3c4ccc5c(c4OC[C@H]3C1)CN([C@H]1CCC(=O)NC1=O)C5=O)C2 (single isomer, unassigned) | 1 to 10 nM

Inquiry: What DC50 value was documented for this compound, COc1cc(N2CCC(CN3CCN4c5ccc6c(c5OC[C@@H]4C3)CN([C@@H]3CCC(=O)NC3=O)C6=O)CC2)ccc1[C@@H]1c2ccc(O)cc2CC[C@@H]1c1ccccc1 (stereo in doubt) ?
Reply text: 10 to 100 nM

Inquiry: What DC50 value was documented for this compound, `COc1cc(N2CCC(CN3CCN4c5cc6c(cc5OC[C@@H]4C3)C(=O)N([C@H]3CCC(=O)NC3=O)C6)CC2)c(F)cc1[C@@H]1c2ccc(O)cc2CC[C@@H]1c1ccccc1` ?
Reply text: < 1 nM

###

Molecular target: ER (Homo sapiens (Human), UniProt P03372)
Sequence (P03372 whole entry): as above
Experiment: In-cell western blot analysis of ER for "B" compounds
Assay type: cell-based
Conditions: 16 hours, read-out: ICW DC50
Description: R^T 2h, gentle shaking. […]
Listed here: items and their measured DC50.

As a guide, the following entries are already answered.
compound | DC50
O=C1CCC(N2Cc3cc4c(cc3C2=O)OC[C@@H]2CN(CC(=O)N3CC5(CC(Nc6ccc([C@@H]7c8ccc(O)cc8CC[C@@H]7c7ccccc7)cc6)C5)C3)CCN42)C(=O)N1 (stereo partly shown) [Compound B153] | < 10 nM
O=C1CC[C@H](N2Cc3c(ccc4c3OC[C@H]3CN(CC5COC6(CCN(c7ccc([C@@H]8c9cc(Cl)c(O)cc9CC[C@@H]8c8ccccc8)cc7)CC6)OC5)CCN43)C2=O)C(=O)N1 [Compound B340] | 10 to 100 nM
O=C1CCC(N2Cc3cc4c(cc3C2=O)OC[C@@H]2CN(CC(=O)N3CCN(c5ccc([C@@H]6c7ccc(O)cc7CC[C@@H]6c6ccccc6)cc5)CC3)CCN42)C(=O)N1 (stereo partly shown) [Compound B145] | 10 to 100 nM
O=C1CCC(N2Cc3c(ccc4c3OCC43CCN(CC4CCN(c5ccc([C@@H]6c7ccc(O)cc7CC[C@@H]6c6ccccc6)cc5)CC4)CC3)C2=O)C(=O)N1 (stereo partly shown) [Compound B258] | 10 to 100 nM
O=C1CCC(N2Cc3c(ccc4c3OC[C@H]3CN(C(=O)CN5CC(Nc6ccc([C@@H]7c8ccc(O)cc8CC[C@@H]7c7ccccc7)cc6)C5)CCN43)C2=O)C(=O)N1 (stereo partly shown) [Compound B250] | 10 to 100 nM

Inquiry: What DC50 value was documented for this compound, O=C1CC[C@H](N2Cc3c(ccc4c3OC[C@H]3CN(CC5CCC6(CN(c7ccc([C@@H]8c9ccc(O)cc9CC[C@@H]8c8ccccc8)cc7)C6)OC5)CCN43)C2=O)C(=O)N1 (stereo partly shown) [Compound B348] ?
Reply text: < 10 nM

Inquiry: What DC50 value was documented for this compound, O=C1CCC(N2Cc3cc4c(cc3C2=O)OC[C@@H]2CN(CC(=O)N3C[C@@H]5CN(c6ccc([C@@H]7c8ccc(O)cc8CC[C@@H]7c7ccccc7)cc6)C[C@@H]5C3)CCN42)C(=O)N1 (stereo partly shown) [Compound B156] ?
Reply text: > 100 nM

Inquiry: What DC50 value was documented for this compound, CN(CC1CC2(CCN(c3ccc([C@@H]4c5ccc(O)cc5CC[C@@H]4c4ccccc4)cc3)CC2)C1)[C@H]1C[C@H]2COc3cc4c(cc3N2C1)C(=O)N(C1CCC(=O)NC1=O)C4=O (stereo partly shown) [Compound B331] ?
Reply text: > 100 nM

Inquiry: What DC50 value was documented for this compound, O=C1CCC(N2Cc3cc4c(cc3C2=O)OC[C@@H]2CN(CC3CCC5(CCN(c6ccc([C@@H]7c8ccc(O)cc8CC[C@@H]7c7ccccc7)cc6)CC5)OC3)CCN42)C(=O)N1 (stereo partly shown) [Compound B332] ?
Reply text: < 10 nM

Inquiry: What DC50 value was documented for this compound, O=C1CCC(N2Cc3c(ccc4c3OC[C@H]3CN(CC5CC6(CCN(c7ccc([C@@H]8c9ccc(O)cc9CC[C@@H]8c8ccccc8)cc7)C6)C5)CCN43)C2=O)C(=O)N1 (stereo partly shown) [Compound B232] ?
Reply text: > 100 nM
